melting point listing for selected compounds.

Example compounds with recorded melting point:
>  <Compound>
CCNS(=O)(=O)c1ccc(Cl)nc1

>  <melting point>
73 to 75 °C

$$$$
>  <Compound>
COc1ccc2c(c1)CNC(c1ccccc1)C2 (stereo not given)

>  <melting point>
90 to 92 °C

$$$$
>  <Compound>
COC(=O)c1c(C)cccc1S(=O)(=O)Cl

>  <melting point>
53 to 55 °C

$$$$

Lookup: Recall and state the measured melting point for CC(=O)NCC(O)c1ccccc1 (stereo not given) .
Found: 119 to 121 °C

Lookup: Recall and state the measured melting point for `Nc1nc2c(s1)CCCCCC2` .
Found: 202 to 204 °C

Lookup: Recall and state the measured melting point for `Cn1cc(-c2ccc(F)c(C(=O)O)c2)cn1` .
Found: 208 to 210 °C

Lookup: Recall and state the measured melting point for `N#Cc1ccc(C=C2CCn3c2nc2cc(C(=O)O)ccc2c3=O)cc1` .
Found: 300 to 302 °C

Lookup: Recall and state the measured melting point for `CCOC(=O)C(=O)CC(=O)c1ccc(OC)cc1` .
Found: 51 to 53 °C

Lookup: Recall and state the measured melting point for CC(C)(C)OC(=O)NC(CN)c1ccccc1 (stereo not given) .
Found: 65 to 67 °C

Lookup: Recall and state the measured melting point for `CCC(=O)NCc1cc(S(N)(=O)=O)ccc1OC` .
Found: 119 to 121 °C

Lookup: Recall and state the measured melting point for `CNS(=O)(=O)c1ccc(Cl)c(C(F)(F)F)c1` .
Found: 100 to 102 °C

Lookup: Recall and state the measured melting point for `NS(=O)(=O)N1CCc2ccccc21` .
Found: 149 to 151 °C

Lookup: Recall and state the measured melting point for `NCCCNC(=O)c1cccc(Br)c1` .
Found: 52 to 54 °C

Lookup: Recall and state the measured melting point for `Nc1nncc(-c2ccc(Cl)s2)n1` .
Found: 259 to 261 °C

Lookup: Recall and state the measured melting point for `CCOC(=O)c1cnc2ccccc2c1-n1cncn1` .
Found: 84 to 86 °C

* * *

melting point listing for selected compounds.

>  <Compound>
Cc1noc(C)c1S(=O)(=O)NC1(C(=O)O)CCCC1

>  <melting point>
176 to 178 °C

$$$$
>  <Compound>
O=C(O)c1csc(COc2ccc(Cl)cc2)n1

>  <melting point>
217 to 219 °C

$$$$
>  <Compound>
Nc1ccc(Oc2ccc(S(N)(=O)=O)cc2)cc1

>  <melting point>
196 to 198 °C

$$$$

Lookup: Recall and state the measured melting point for `O=C(O)CONS(=O)(=O)c1ccc(F)cc1` .
Found: 168 to 170 °C

Lookup: Recall and state the measured melting point for `ON=Cc1ccc(OCc2ccccn2)cc1` .
Found: 154 to 156 °C

Lookup: Recall and state the measured melting point for `NS(=O)(=O)C#Cc1ccccc1` .
Found: 136 to 138 °C

Lookup: Recall and state the measured melting point for CC(C(=O)c1ccc(Br)cc1)N1C(=O)CCC1=O (stereo not drawn) .
Found: 171 to 173 °C

Lookup: Recall and state the measured melting point for `O=C(Nc1ccccc1)c1cccc(CCl)c1` .
Found: 123 to 125 °C

* * *

Readout label: melting point

Example molecules with recorded melting point:
>  <Molecule>
Clc1cc(SCc2ccccc2)ccn1

>  <melting point>
61 to 63 °C

$$$$
>  <Molecule>
Sc1ncccc1Cl

>  <melting point>
204 to 206 °C

$$$$
>  <Molecule>
CN1C(=O)CCC(CO)C1c1cccc(Cl)c1 (configuration not stated)

>  <melting point>
122 to 124 °C

$$$$
>  <Molecule>
Nc1nc(CN2CCN(Cc3ccccc3)CC2)cs1

>  <melting point>
110 to 112 °C

$$$$
>  <Molecule>
Nc1ccc2c(c1)COC2

>  <melting point>
89 to 91 °C

$$$$

Lookup: Recall and state the measured melting point for O=C(O)C1CCCN1C(=O)C1CCCCC1 (configuration not stated) .
Found: 135 to 137 °C

Lookup: Recall and state the measured melting point for `CON(C)S(=O)(=O)c1ccc(C(=O)O)cc1` .
Found: 210 to 212 °C

Lookup: Recall and state the measured melting point for CC(COc1ccccc1)C(=O)O (configuration not stated) .
Found: 84 to 86 °C

Lookup: Recall and state the measured melting point for `O=C(O)c1ccc(S)c(Cl)c1` .
Found: 219 to 221 °C

Lookup: Recall and state the measured melting point for `Cc1cccc(CNC(=O)CCl)c1` .
Found: 71 to 73 °C

Lookup: Recall and state the measured melting point for `CCCn1c(N)c(NCCN2CCOCC2)c(=O)[nH]c1=O` .
Found: 153 to 155 °C

Lookup: Recall and state the measured melting point for `CNC(=O)c1cnc(C)s1` .
Found: 172 to 174 °C
